Data origin, for the record: patent US20130261130A1

Target: human neurotrypsin (Homo sapiens)
Sequence (P56730 21-875): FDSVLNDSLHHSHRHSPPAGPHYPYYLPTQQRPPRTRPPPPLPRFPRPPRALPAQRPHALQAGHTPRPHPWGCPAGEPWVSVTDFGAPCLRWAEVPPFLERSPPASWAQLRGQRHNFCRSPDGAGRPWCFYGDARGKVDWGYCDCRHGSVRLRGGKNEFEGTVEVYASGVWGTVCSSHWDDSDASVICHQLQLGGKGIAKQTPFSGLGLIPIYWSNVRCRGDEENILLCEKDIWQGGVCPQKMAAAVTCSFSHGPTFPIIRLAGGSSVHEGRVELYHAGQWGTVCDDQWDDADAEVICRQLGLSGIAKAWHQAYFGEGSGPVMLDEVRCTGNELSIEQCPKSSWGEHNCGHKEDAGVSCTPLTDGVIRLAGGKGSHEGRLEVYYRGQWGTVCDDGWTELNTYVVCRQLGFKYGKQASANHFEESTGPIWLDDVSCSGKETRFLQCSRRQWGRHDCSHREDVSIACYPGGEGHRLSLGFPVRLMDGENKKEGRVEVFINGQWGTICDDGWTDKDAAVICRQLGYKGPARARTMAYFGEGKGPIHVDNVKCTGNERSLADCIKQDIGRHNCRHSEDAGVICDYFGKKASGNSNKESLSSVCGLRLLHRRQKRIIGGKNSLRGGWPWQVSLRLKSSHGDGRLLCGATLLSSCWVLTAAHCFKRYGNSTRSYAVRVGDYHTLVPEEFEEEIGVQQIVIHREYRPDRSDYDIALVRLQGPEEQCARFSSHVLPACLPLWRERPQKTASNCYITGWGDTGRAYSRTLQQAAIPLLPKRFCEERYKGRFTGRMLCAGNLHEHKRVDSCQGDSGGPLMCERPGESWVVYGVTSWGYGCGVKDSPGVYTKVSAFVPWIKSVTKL
Assay: Determination of IC50 for human neurotrypsin
Assay type: biochemical
Settings: human neurotrypsin; method of WO 2006/1103261; read-out: Neurotrypsin IC50
Task for the reader: assign each of the following compounds its reported pIC50.
Give bare numbers, as −log10 of the molar value.

Solved cases below.
| Compound | Target System | Measurement Kind | Measurement |
| --- | --- | --- | --- |
| O=C(Nc1ccc(C(=O)N2CCCCC2)cc1C(=O)O)c1ccc(-c2nc3cc(Cl)c(Cl)cc3[nH]2)cc1 | human neurotrypsin (Homo sapiens) | pIC50 | 5.41 |
| O=C(O)c1ccc(CN2CC(c3ccc(Cl)cc3)OC2=O)cc1NC(=O)c1sc2ccccc2c1Cl (centres unmarked) | human neurotrypsin (Homo sapiens) | pIC50 | 5.06 |
| O=C(O)c1ccc(C(=O)N2CCCc3ccccc32)cc1NC(=O)c1sc2ccccc2c1Cl | human neurotrypsin (Homo sapiens) | pIC50 | 4.99 |
| CC(C)(C)Oc1ccc(NC(=O)c2ccc(C(=O)O)c(NC(=O)c3sc4ccccc4c3Cl)c2)cc1 | human neurotrypsin (Homo sapiens) | pIC50 | 4.72 |
| O=C(Nc1ncc(Cl)s1)c1ccc(C(=O)O)c(NC(=O)c2ccc(-c3ccccc3)s2)c1 | human neurotrypsin (Homo sapiens) | pIC50 | 5.12 |

Quick batch: pIC50 for everything below.
1. O=C(Nc1cc(NC(=O)c2sc3ccccc3c2Cl)ccc1C(=O)O)c1ccc(Cl)cc1
2. O=C(Nc1ccc(Cl)cc1)c1ccc(NC(=O)c2ccc(-c3cccs3)cc2O)c(C(=O)O)c1
3. O=C(Nc1ccc(Sc2ccc(Cl)cc2)cc1C(=O)O)c1ccc(-c2ccc(Cl)cc2)s1

A:
[5.46, 5.39, 5.06]
